- Test system: L1210 murine leukemia cell line
- test_protocol: In vitro cytotoxic activity (cell growth inhibition), L1210
- Format: cell-based
- recorded_conditions: Mus musculus, L1210, read-out: In vitro IC50 L1210 natural, natural (S)-enantiomer; Table 4
Known IC50 of a selection of molecules
parameter_measured: IC50 (nM)

- COC(=O)c1cc2c([nH]1)C(=O)C=C1N(C(=O)c3cc4cc(OC)c(OC)c(OC)c4[nH]3)CC3CC123 (stereo not shown) [Compound 1, Duocarmycin SA, reference compound]: 0.01
- O=C(Nc1ccc2[nH]c(C(=O)N3C[C@@H](CCl)c4c3cc3c5c(cccc45)NC(=S)O3)cc2c1)c1cc2ccccc2[nH]1 [Compound 25]: 0.29
- N=C1Nc2cccc3c4c(cc(c23)O1)N(C(=O)c1cc2cc(NC(=O)c3cc5ccccc5[nH]3)ccc2[nH]1)C[C@H]4CCl [Compound 24]: 0.5
